Some binders, each annotated with its measured interaction score.
Target: T1, 4H3070-bA
T1 chain: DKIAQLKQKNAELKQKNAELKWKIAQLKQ
Experiment: two-hybrid library CCNG1;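 further: natural log of median RNA to DNA barcode read ratio; higher means stronger binding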

>  <binder>
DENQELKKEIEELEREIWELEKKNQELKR [4H1544-bH]

>  <interaction score>
0.826

$$$$
>  <binder>
DENAQLEQKIAELKQEIAELEWENAQLEQ [4H1347-bA]

>  <interaction score>
-0.786

$$$$
>  <binder>
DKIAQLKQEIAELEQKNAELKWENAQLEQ [4H2619-bA]

>  <interaction score>
-0.983

$$$$
>  <binder>
DKIAQLKQENAELEQEIAELEWENAQLEQ [4H2691-bA]

>  <interaction score>
0.439

$$$$

Cited source: paper PMC10397247
